targetOrTestSystem: human CYP11B2 (Homo sapiens)
Sequence (P19099 25-503): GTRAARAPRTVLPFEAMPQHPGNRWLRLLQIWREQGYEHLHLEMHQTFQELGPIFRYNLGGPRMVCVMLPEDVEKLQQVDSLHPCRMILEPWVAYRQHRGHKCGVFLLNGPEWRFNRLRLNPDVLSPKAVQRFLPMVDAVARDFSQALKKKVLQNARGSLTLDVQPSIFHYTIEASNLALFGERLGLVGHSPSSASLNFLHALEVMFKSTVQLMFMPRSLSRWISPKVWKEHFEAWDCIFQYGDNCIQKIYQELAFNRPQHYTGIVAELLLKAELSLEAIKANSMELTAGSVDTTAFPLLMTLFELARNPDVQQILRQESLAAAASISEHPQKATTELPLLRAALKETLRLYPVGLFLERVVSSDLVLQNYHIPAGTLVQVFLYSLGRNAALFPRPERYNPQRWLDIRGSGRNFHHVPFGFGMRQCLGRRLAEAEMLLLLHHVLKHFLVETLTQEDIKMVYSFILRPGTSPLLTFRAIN
testMethodNotes: In vitro activity assay of monoclonal cells overexpressing human CYP11B2
statedConditions: G402 cells overexpressing human CYP11B2; 1 µM 11-deoxycorticosterone, 16 hours; aldosterone by LC-MS/MS
# key: entry, value: IC50
I'd appreciate it if you included the unit after the number.

Record excerpt, results attached:
INSERT INTO results (compound, result) VALUES
  ('CCC(=O)NC1CCCc2c(-c3cc4c(cc3F)N(C)C(=O)CO4)cncc21 (single isomer, unassigned)', '30.1 nM'),
  ('CCC(=O)NC1CCCc2c(-c3cc4c(s3)N(C)C(=O)CC4)cncc21 (single isomer, unassigned)', '2.09 nM'),
  ('Cn1c(=O)ccc2cc(-c3cncc4c3CCC[C@H]4NC(=O)c3ncccc3Cl)ccc21 (single isomer, unassigned)', '20.6 nM'),
  ('Cc1noc(C)c1C(=O)NC1CCCc2c(-c3cc4ccc(=O)n(C)c4cc3F)cncc21 (single isomer, unassigned)', '25.5 nM');

stdin: Param item = CCC(=O)NC1CCCc2c(-c3cc4ccc(=O)n(C)c4s3)cncc21 (single isomer, unassigned) ; retrieve measured IC50.
stdout: 12.5 nM

stdin: Another: CCC(=O)NC1CCOc2c(-c3cc4c(s3)N(C)C(=O)CC4)cncc21 (single isomer, unassigned)
stdout: 13.3 nM

stdin: Then this compound: CCC(=O)NC1CCCc2c(-c3ccc4c(c3)OCC(=O)N4C)cncc21 (single isomer, unassigned) [Compound 010]
stdout: 71.5 nM

stdin: Moving on to CCC(=O)NC1CCCc2c(-c3ccc4c(ccc(=O)n4C)c3Cl)cncc21 (single isomer, unassigned)
stdout: 41 nM

stdin: Proceed to CCC(=O)NC1CCc2c(-c3ccc4c(ccc(=O)n4C)c3)cncc21 (single isomer, unassigned)
stdout: 7.02 nM

----------
targetOrTestSystem: CYP2D6 (Homo sapiens)
Construct: Mixed human liver microsomes (HLM) were purchased from Corning Inc; tissue Corning Inc; host or cells: pooled (mixed) human liver microsomes
Sequence (P10635 whole entry): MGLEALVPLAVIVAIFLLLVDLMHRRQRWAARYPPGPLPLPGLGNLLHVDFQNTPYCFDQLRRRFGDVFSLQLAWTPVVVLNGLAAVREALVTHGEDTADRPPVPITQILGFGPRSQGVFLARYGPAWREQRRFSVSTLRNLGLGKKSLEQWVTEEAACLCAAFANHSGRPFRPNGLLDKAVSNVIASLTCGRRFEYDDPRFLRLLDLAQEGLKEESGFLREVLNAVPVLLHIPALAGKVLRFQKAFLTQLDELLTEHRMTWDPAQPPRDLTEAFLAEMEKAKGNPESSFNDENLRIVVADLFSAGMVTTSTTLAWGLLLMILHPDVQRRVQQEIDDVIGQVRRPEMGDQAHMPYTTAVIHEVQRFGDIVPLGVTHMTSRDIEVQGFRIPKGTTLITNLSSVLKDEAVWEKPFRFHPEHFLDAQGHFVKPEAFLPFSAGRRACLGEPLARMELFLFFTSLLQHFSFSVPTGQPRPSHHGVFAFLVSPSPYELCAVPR
testMethodNotes: Human liver microsome CYP inhibition assay, CYP2D6
Format: in vitro ADME
statedConditions: mixed human liver microsomes, 5-in-1 probe substrate; read-out: Cytochrome P450 isoenzyme half maximal inhibitory concentration IC50 (µM) CYP2D6
parameterMeasured: IC50

stdin: Quick one: IC50 of CCC(=O)N[C@@H]1CCCc2c(-c3ccc4c(ccc(=O)n4C)c3)cncc21 (single isomer, unassigned) ?
stdout: > 50 µM

----------
testMethodNotes: Permeability test (MDR1-MDCKII monolayer, bidirectional transport)
Assay type: in vitro ADME
statedConditions: dog, MDCK-MDR1, pH 7.4, ER = Papp (BA)/ Papp (AB)
Below, each of the molecules is paired with its reported efflux ratio at 2.5 h, 2 µM value.
Lab note: record just the number, no unit beside it.

INSERT INTO measurements (molecule, measurednumber) VALUES
  ('CCC(=O)NC1CCCc2c(-c3cc4c(s3)N(C)C(=O)CC4)cncc21 (single isomer, unassigned) [Compound 017]', 0.95);

stdin: Fill in: efflux ratio at 2.5 h, 2 µM of Cc1noc(C)c1C(=O)NC1CCCc2c(-c3cc4ccc(=O)n(C)c4cc3F)cncc21 (single isomer, unassigned) [Compound 020] is ___
stdout: 2.47

stdin: Next entry: CCC(=O)NC1CCCc2c(-c3cc4ccc(=O)n(C)c4cc3F)cncc21 (single isomer, unassigned) [Compound 019]
stdout: 1.55

----------
// reported pIC50 per item
targetOrTestSystem: CYP1A2 (Homo sapiens)
Construct: Mixed human liver microsomes (HLM) were purchased from Corning Inc; tissue Corning Inc; host or cells: pooled (mixed) human liver microsomes
Sequence (P05177 whole entry): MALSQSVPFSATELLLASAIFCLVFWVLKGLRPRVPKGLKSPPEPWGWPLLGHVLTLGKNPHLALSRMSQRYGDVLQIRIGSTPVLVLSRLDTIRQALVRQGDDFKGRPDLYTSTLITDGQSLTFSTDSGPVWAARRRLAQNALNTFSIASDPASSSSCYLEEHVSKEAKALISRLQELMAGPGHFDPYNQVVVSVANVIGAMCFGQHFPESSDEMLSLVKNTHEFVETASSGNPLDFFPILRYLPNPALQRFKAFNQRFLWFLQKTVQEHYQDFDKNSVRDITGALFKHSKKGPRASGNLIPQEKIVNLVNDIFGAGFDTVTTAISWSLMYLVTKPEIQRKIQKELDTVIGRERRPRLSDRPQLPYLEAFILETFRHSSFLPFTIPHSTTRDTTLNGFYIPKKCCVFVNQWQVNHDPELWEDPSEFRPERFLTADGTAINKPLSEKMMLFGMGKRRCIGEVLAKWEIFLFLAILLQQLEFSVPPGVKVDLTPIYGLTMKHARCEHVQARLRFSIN
testMethodNotes: Human liver microsome CYP inhibition assay, CYP1A2
Type: in vitro ADME
pIC50: −log10 of the molar value.

INSERT INTO measurements (compound, result) VALUES
  ('CCC(=O)NC1CCCc2c(-c3cc4c(s3)N(C)C(=O)CC4)cncc21 (single isomer, unassigned)', '< 4.30');

Please examine the following record next.
stdin: Item CCC(=O)NC1CCCc2c(-c3cc4ccc(=O)n(C)c4s3)cncc21 (single isomer, unassigned) has what recorded pIC50?
stdout: < 4.30

----------
testMethodNotes: in vitro
statedConditions: rat, plasma
Recorded fraction unbound at 4 h, 2 µM, one value per entry.

Guide cases for fraction unbound at 4 h, 2 µM, answers given:
INSERT INTO measurements (compound, result) VALUES
  ('CCC(=O)NC1CCCc2c(-c3cc(F)c4c(ccc(=O)n4C)c3)cncc21 (single isomer, unassigned)', 0.08),
  ('CCC(=O)NC1CCCc2c(-c3cc4ccc(=O)n(C)c4cc3F)cncc21 (single isomer, unassigned)', 0.129),
  ('CCC(=O)NC1CCOc2c(-c3ccc4c(ccc(=O)n4C)c3)cncc21 (single isomer, unassigned)', 0.024),
  ('Cc1noc(C)c1C(=O)NC1CCCc2c(-c3cc4ccc(=O)n(C)c4cc3F)cncc21 (single isomer, unassigned)', 0.083),
  ('CCC(=O)NC1CCCc2c(-c3cc4c(s3)N(C)C(=O)CC4)cncc21 (single isomer, unassigned)', 0.051);

# input for lookup
stdin: Report fraction unbound at 4 h, 2 µM for CCC(=O)NC1CCCc2c(-c3cc4ccc(=O)n(C)c4s3)cncc21 (single isomer, unassigned) please.
stdout: 0.096

----------
targetOrTestSystem: CYP2C9 (Homo sapiens)
Construct: Mixed human liver microsomes (HLM) were purchased from Corning Inc; tissue Corning Inc; host or cells: pooled (mixed) human liver microsomes
Sequence (P11712 whole entry): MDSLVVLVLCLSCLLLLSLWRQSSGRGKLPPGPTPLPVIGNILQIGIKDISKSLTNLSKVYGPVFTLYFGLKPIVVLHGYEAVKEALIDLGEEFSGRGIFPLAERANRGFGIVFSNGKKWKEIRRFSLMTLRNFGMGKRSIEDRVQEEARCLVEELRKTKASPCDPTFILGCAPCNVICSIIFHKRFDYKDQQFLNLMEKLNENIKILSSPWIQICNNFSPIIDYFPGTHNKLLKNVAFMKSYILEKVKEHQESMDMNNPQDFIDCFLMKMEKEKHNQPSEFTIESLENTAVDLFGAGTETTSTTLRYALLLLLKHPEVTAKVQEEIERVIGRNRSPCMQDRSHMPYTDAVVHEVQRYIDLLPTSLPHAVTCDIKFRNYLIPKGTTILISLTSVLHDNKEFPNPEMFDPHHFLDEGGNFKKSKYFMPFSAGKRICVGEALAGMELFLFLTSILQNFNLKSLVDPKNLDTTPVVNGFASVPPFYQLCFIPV
testMethodNotes: Human liver microsome CYP inhibition assay, CYP2C9
Assay type: in vitro ADME
parameterMeasured: IC50 (µM)
All answers are understood in µM, so give the number only.

stdin: Which value of IC50 has been reported for CCC(=O)NC1CCCc2c(-c3cc4c(s3)N(C)C(=O)CC4)cncc21 (single isomer, unassigned) [Compound 017] in the records?
stdout: 45.1

----------
testMethodNotes: in vitro
statedConditions: human, microsomes
parameterMeasured: CLint scaled at 1 µM

// below: answered compounds
INSERT INTO results (compound, result) VALUES
  ('CCC(=O)NC1CCCc2c(-c3cc4c(s3)N(C)C(=O)CC4)cncc21 (single isomer, unassigned) [Compound 017]', '< 8.6 mL/min/kg'),
  ('CCC(=O)NC1CCCc2c(-c3cc4ccc(=O)n(C)c4s3)cncc21 (single isomer, unassigned) [Compound 023]', '< 8.6 mL/min/kg'),
  ('Cc1noc(C)c1C(=O)NC1CCCc2c(-c3cc4ccc(=O)n(C)c4cc3F)cncc21 (single isomer, unassigned) [Compound 020]', '12.9 mL/min/kg'),
  ('CCC(=O)NC1CCCc2c(-c3cc(F)c4c(ccc(=O)n4C)c3)cncc21 (single isomer, unassigned) [Compound 018]', '< 8.6 mL/min/kg');

Proceeding to the next compound to report its CLint scaled at 1 µM.
stdin: # input compound: CCC(=O)NC1CCCc2c(-c3cc4ccc(=O)n(C)c4cc3F)cncc21 (single isomer, unassigned) [Compound 019] ; wanted: its CLint scaled at 1 µM
stdout: < 8.6 mL/min/kg

----------
testMethodNotes: in vivo
statedConditions: cynomolgus monkey, po, 3 mg/kg
parameterMeasured: Cmax (µM)
Please give a number only; it is taken to be in µM.

stdin: For the compound CCC(=O)NC1CCCc2c(-c3cc4ccc(=O)n(C)c4cc3F)cncc21 (single isomer, unassigned) , what Cmax is on record?
stdout: 3.79

----------
testMethodNotes: Permeability test (MDR1-MDCKII monolayer, bidirectional transport)
Format: in vitro ADME
statedConditions: dog, MDCK-MDR1, pH 7.4, pH 7.40, 2.5 hours, A to B, read-out: Apparent permeability coefficient (Papp (AB), 10^-6 cm/s)
parameterMeasured: Papp A→B at 2.5 h, 2 µM

stdin: Need Papp A→B at 2.5 h, 2 µM of CCC(=O)NC1CCOc2c(-c3ccc4c(ccc(=O)n4C)c3)cncc21 (single isomer, unassigned) , thanks.
stdout: 11 ×10⁻⁶ cm/s

stdin: # iterate: CCC(=O)NC1CCCc2c(-c3cc4ccc(=O)n(C)c4s3)cncc21 (single isomer, unassigned)
stdout: 20.8 ×10⁻⁶ cm/s

stdin: Proceed to CCC(=O)NC1CCCc2c(-c3cc4ccc(=O)n(C)c4cc3F)cncc21 (single isomer, unassigned)
stdout: 21.5 ×10⁻⁶ cm/s

----------
# key: entry, value: AUC(0-t) at 24 h
testMethodNotes: in vivo
statedConditions: rat, po, 2 mg/kg
Entry rule: numbers only, all in µM·h.

INSERT INTO results (compound, measurednumber) VALUES
  ('CCC(=O)NC1CCCc2c(-c3cc4ccc(=O)n(C)c4s3)cncc21 (single isomer, unassigned) [Compound 023]', 44.2);

Next, consider the following compound.
stdin: Entry under review: CCC(=O)NC1CCCc2c(-c3cc4c(s3)N(C)C(=O)CC4)cncc21 (single isomer, unassigned) [Compound 017] . Reported AUC(0-t) at 24 h?
stdout: 8.13

----------
testMethodNotes: in vitro
statedConditions: human, plasma
parameterMeasured: fraction unbound at 4 h, 2 µM

Here's what some known entries look like.
INSERT INTO assay_data (compound, result) VALUES
  ('CCC(=O)NC1CCCc2c(-c3cc(F)c4c(ccc(=O)n4C)c3)cncc21 (single isomer, unassigned)', 0.191),
  ('CCC(=O)NC1CCOc2c(-c3ccc4c(ccc(=O)n4C)c3)cncc21 (single isomer, unassigned)', 0.295),
  ('CCC(=O)NC1CCCc2c(-c3cc4ccc(=O)n(C)c4cc3F)cncc21 (single isomer, unassigned)', 0.238),
  ('CCC(=O)NC1CCCc2c(-c3cc4ccc(=O)n(C)c4s3)cncc21 (single isomer, unassigned)', 0.304),
  ('Cc1noc(C)c1C(=O)NC1CCCc2c(-c3cc4ccc(=O)n(C)c4cc3F)cncc21 (single isomer, unassigned)', 0.144);

Now for the compound whose fraction unbound at 4 h, 2 µM we want.
stdin: Which fraction unbound at 4 h, 2 µM value is on record for CCC(=O)NC1CCCc2c(-c3cc4c(s3)N(C)C(=O)CC4)cncc21 (single isomer, unassigned) ?
stdout: 0.173

Origin of values: patent EP4711361A1
